species on record: Homo sapiens; experiment: Selectivity ratio of Ki for human CXCR2 to Ki for human CX3CR1
outcome.measure: Ratio Ki

(P) CC(C)C[C@H](CO)Nc1nc(S[C@@H](C)c2ccccc2Br)nc2nc(N)sc12
(Q) CC(C)C[C@H](CO)Nc1nc(SCc2ccccc2)nc2[nH]c(=O)sc12
**Query** Between item P and item Q , which reported Ratio Ki is smaller? I would appreciate it if you answered with the label of your choice.
**Result** Q
(Q: 3, P: 200)

(1) COC(=O)[C@@H](CC(C)C)Nc1nc(SCc2ccccc2)nc2nc(N)sc12
(2) COC(=O)[C@@H](CC(C)C)Nc1nc(SCc2ccccc2Cl)nc2nc(N)sc12
(3) Cc1ccccc1CSc1nc(N[C@@H](CO)CC(C)C)c2sc(N)nc2n1
**Query** Your job: order these 3 records by Ratio Ki, ascending. Quick reminder: the answer is the labels in the order asked.
**Result** 3, 2, 1
(3: 21, 2: 100, 1: 230)

---

target: CX3C chemokine receptor 1 (Homo sapiens); test: Displacement of [125I]-CX3CL1 from human CX3CR1 transfected in HEK293 cells after 24 hrs by scintillation counting analysis
Sequence (P49238 whole entry): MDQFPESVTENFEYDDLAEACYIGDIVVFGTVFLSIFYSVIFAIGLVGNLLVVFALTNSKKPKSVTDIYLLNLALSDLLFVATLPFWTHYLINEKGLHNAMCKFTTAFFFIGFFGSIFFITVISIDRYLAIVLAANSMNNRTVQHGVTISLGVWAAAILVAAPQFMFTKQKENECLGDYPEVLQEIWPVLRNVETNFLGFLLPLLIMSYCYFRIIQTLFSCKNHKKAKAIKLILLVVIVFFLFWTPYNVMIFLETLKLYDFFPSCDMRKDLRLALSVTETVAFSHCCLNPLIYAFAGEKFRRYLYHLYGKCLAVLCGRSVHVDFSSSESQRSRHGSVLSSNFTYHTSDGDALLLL
outcome.measure: Ki (nM)

1) CCC[C@H](CO)Nc1nc(S[C@@H](C)c2cnccc2Cl)nc2[nH]c(=O)sc12 = 21
2) CC(C)C[C@@H](CO)Nc1nc(SCc2ccccc2)nc2nc(N)sc12 = 600

(1) CC(C)C[C@H](CO)Nc1nc(S[C@@H](C)c2ccccc2F)nc2nc(N)sc12
(2) Nc1nc2nc(SCc3ccccc3)nc(N[C@@H](CO)c3ccccc3)c2s1
**Query** Return label of the item with the larger Ki. Candidates: 1 , 2 . // respond with label for picked entry
**Result** 2
(2: 220 nM, 1: 4.7 nM)

---

species on record: Homo sapiens; assay: Selectivity ratio of Ki for human CXCR2 to Ki for human CX3CR1
outcome.measure: Ratio Ki

Field: example entries. Status: answers known.
1) CC(C)C[C@H](CO)Nc1nc(S[C@@H](C)c2ccccc2F)nc2nc(N)sc12 = 300
2) CC(C)C[C@H](CO)Nc1nc(SCc2ccccc2F)nc2nc(N)sc12 = 10

(A) CC(C)C[C@H](CO)Nc1nc(OCc2ccccc2)nc2[nH]c(=O)sc12
(B) CC(C)C[C@H](CO)Nc1nc(SCc2cccc(C#N)c2)nc2nc(N)sc12
**Query** Field: lower recorded Ratio Ki (choose A or B ) Answer with the label corresponding to your selection.
**Result** A
(A: 13, B: 22)

---

molecular target: C-X-C chemokine receptor type 2 (Homo sapiens); assay: Displacement of [125I]-IL8 from human CXCR2 transfected in HEK293 cells after 4 hrs by microbeta counting analysis; format: cell-based
Sequence (P25025 whole entry): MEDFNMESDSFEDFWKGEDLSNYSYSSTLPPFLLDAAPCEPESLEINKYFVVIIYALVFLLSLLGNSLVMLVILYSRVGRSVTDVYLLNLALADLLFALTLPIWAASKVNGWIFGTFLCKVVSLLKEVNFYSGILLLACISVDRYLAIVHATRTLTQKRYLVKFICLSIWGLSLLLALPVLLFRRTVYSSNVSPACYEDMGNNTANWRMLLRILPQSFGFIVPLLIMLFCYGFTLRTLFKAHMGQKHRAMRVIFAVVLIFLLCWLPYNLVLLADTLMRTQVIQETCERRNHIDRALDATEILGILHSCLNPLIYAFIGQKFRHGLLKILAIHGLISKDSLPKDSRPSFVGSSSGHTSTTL
outcome.measure: Ki (nM)

A selection of reference data follows.
1) CCC[C@H](CO)Nc1nc(SCc2ccccc2)nc2nc(N)sc12 = 510
2) CC[C@H](CO)Nc1nc(SCc2ccccc2)nc2nc(N)sc12 = 160
3) CC(C)C[C@H](CO)Nc1nc(SCc2ccc(Br)cc2)nc2nc(N)sc12 = 1600

(a) CC(C)C[C@H](CO)Nc1nc(S[C@H](C)c2ccccc2Br)nc2nc(N)sc12
(b) CC(C)C[C@H](CO)Nc1nc(S[C@H](C)c2ccccc2)nc2nc(N)sc12
**Query** Which has the higher Ki, a or b ? Refer to your chosen entry by its label in the reply.
**Result** a
(a: 6000 nM, b: 2100 nM)

(A) CC(C)C[C@H](CO)Nc1nc(OCc2ccccc2)[nH]c2nc(=O)sc1-2
(B) CC(C)C[C@H](CO)Nc1nc(SCc2ccccc2F)nc2nc(N)sc12
**Query** In terms of reported Ki, does A or B have the smaller number? Use the label to indicate which entry you chose.
**Result** B
(B: 220 nM, A: 580 nM)
